Tested on: M14
procedure_details: NCI tumour cell line growth inhibition, 48 h
Active and inactive are the calls of the source. No stated cut-off is given here; in the data, active = GI50 up to about 1.1 µM and inactive = higher.
endpoint_label: GI50

COc1cc([C@H]2CC(=O)C[C@H](c3cc(OC)c(OC)c(OC)c3)C23C(=O)c2ccccc2C3=O)cc(OC)c1OC: > 100 µM (inactive)
O=C(CC1(O)C(=O)Nc2c(Cl)cc(Cl)cc21)c1cccc2ccccc12 (stereo not given): 16.7 µM (inactive)
CC(=O)OCC12CC(CC1OC(C)=O)c1ccccc12 (stereo not given): > 100 µM (inactive)
C=C(C(=O)O)[C@@H]1C[C@@H](OC(C)=O)[C@]2(C)CC/C=C(\C)CCC[C@H](C)[C@H](O)[C@@H]1O2: 28.2 µM (inactive)

Now for a further molecule.
What value of measured GI50 is listed for "NNC(=O)c1ccccc1NC(=O)/C(=C/c1ccccc1)NC(=O)c1ccccc1" ?
81.1 µM (inactive)

###

Test system: 786-0
procedure_details: NCI tumour cell line growth inhibition, 48 h
The source made the active and inactive calls. Cut-off read from the data, not from the text of the source: active = GI50 up to about 1.1 µM and inactive = higher.
endpoint_label: GI50

# example entries with known answers
O=C(Nc1ccccc1)N(CCCCN(Cc1ccccc1)C(=O)Nc1ccccc1)Cc1ccccc1: 95.3 µM (inactive)
O=C1C(Cl)=C(N2CCN(c3ccccn3)CC2)C(=O)c2c(O)ccc(O)c21: 1.25 µM (inactive)
COc1cc2c(cc1O)[C@H](C)C(c1ccccc1OC)O2 (some centres not stated): 5.61 µM (inactive)

Now for a further compound.
What value of measured GI50 is listed for "N#Cc1nc(Nc2cccc3ccccc23)sc1N" ?
33 µM (inactive)

###

We begin with a simple list: items and their reported GI50.
System: Hs-578T
procedure_details: NCI tumour cell line growth inhibition, 48 h
Calls of active or inactive are those of the source. No stated cut-off is given here; in the data, active = GI50 up to about 1.1 µM and inactive = higher.

# example entries with known answers
CCN(CC)CCNc1ccc2nnn3c4ccc([N+](=O)[O-])cc4c(=O)c1c23: 14.1 µM (inactive)
CCCN(CCC)C(=S)Sc1nc(C)nc(N2CCN(c3nc(C)nc(SC(=S)N(CCC)CCC)c3[N+](=O)[O-])CC2)c1[N+](=O)[O-]: > 63.7 µM (inactive)
C[C@@H]1CCC2C(C)(C)C(/C=C\C=O)C3(C)OC213 (stereo partly specified): 21.5 µM (inactive)
CN(C)Cc1cc(/N=N/c2ccc(Cl)cc2)ccc1O: 15 µM (inactive)
Cc1cccc2oc3c(CC(=O)O)cccc3c(=O)c12: > 100 µM (inactive)

What value of measured GI50 is listed for COC(=O)C1CN=CN1CCc1ccccc1 (stereo unspecified) ?
> 100 µM (inactive)

What value of measured GI50 is listed for "Cc1ccc(S(=O)(=O)N/N=c2/sc3ccccc3n2C)cc1" ?
> 100 µM (inactive)

What value of measured GI50 is listed for "CCOC(=O)c1c(-c2ccccc2)c(OC)cn1C" ?
> 10 µM (inactive)

What value of measured GI50 is listed for "O=C1N[C@@H]([C@H]2CC[C@H](Cl)CN2)C(=O)N[C@H]1[C@H]1CC[C@H](Cl)CN1" ?
5.06 µM (inactive)

What value of measured GI50 is listed for "CN(C)c1ccc(C=C2N=C(c3ccccc3)N(c3cc(C(=O)c4ccccc4)ccc3N3C(=O)/C(=C/c4ccc(N(C)C)cc4)N=C3c3ccccc3)C2=O)cc1" ?
4.2 µM (inactive)

What value of measured GI50 is listed for "CCN(CC)CCNc1c(OC)cc(C)c2sc3ccccc3c(=O)c12" ?
7.5 µM (inactive)

What value of measured GI50 is listed for "N#Cc1c(N)c2c(c(-c3ccccc3)c1-c1ccccc1)C(=O)N(N)C2=O" ?
60.1 µM (inactive)

What value of measured GI50 is listed for COC(=O)C1=CC2CCCC1(O)C(C(C)=O)C2 (stereo unspecified) ?
> 100 µM (inactive)

What value of measured GI50 is listed for "Cc1c(Cc2ccccc2)c(Cc2ccccc2)c(C)[s+]1[O-]" ?
37.8 µM (inactive)

What value of measured GI50 is listed for "C/C(=N\NC(=S)N1CCN(c2ccccn2)CC1)c1ncccn1" ?
1.87 µM (inactive)

What value of measured GI50 is listed for "CC(=O)C(CN1C(=O)c2ccccc2C1=O)C(C)=O" ?
> 100 µM (inactive)

What value of measured GI50 is listed for CCN1CCCC(Nc2cc(C)nc(NC(=N)Nc3ccc(Cl)c(Cl)c3)n2)C1 (stereo unspecified) ?
2.02 µM (inactive)

What value of measured GI50 is listed for "Cc1nnc2sc(Cl)nn12" ?
39.5 µM (inactive)

What value of measured GI50 is listed for "S=C(N/N=C(/c1ccccc1)c1ccccn1)Nc1cccc(Cl)c1" ?
1.52 µM (inactive)

What value of measured GI50 is listed for Cc1cn(C2CC(O)C(COP(=O)(O)OC3CC(n4c[n+]([BH2-]C#N)c5c(=O)[nH]c(N)nc54)OC3CO)O2)c(=O)[nH]c1=O (stereo unspecified) ?
> 100 µM (inactive)

What value of measured GI50 is listed for CC(NC(=O)C(C)C(=O)Nc1ccc(C(F)(F)F)cc1)C(N)=O (stereo unspecified) ?
> 100 µM (inactive)
